# Study target: Histamine H3 receptor (Homo sapiens)
# Run description: Inverse agonist activity at human histamine H3 receptor expressed in CHO cells assessed as inhibition of [35S]-GTPgammaS binding by liquid scintillation counting
Recorded metric: EC50 (nM)

Example entries begin here.
>  <Chemical structure>
c1cc(C2=NC3(CCCCC3)CO2)ccc1O[C@H]1C[C@H](N2CCCCC2)C1

>  <Units of measure>
nM

>  <EC50>
2

$$$$
>  <Chemical structure>
COC(=O)c1oc(-c2ccc(O[C@H]3C[C@H](N4CCCCC4)C3)cc2)nc1C

>  <Units of measure>
nM

>  <EC50>
1.58

$$$$
>  <Chemical structure>
c1cc(C2=NC3(CCCCC3)CO2)ccc1OCCCN1CCCCC1

>  <Units of measure>
nM

>  <EC50>
7.94

$$$$
>  <Chemical structure>
c1cc(-c2nc(CN3CCCCC3)co2)ccc1O[C@H]1C[C@H](N2CCCCC2)C1

>  <Units of measure>
nM

>  <EC50>
3.16

$$$$

I = c1cc(C2=NC3(CCCCC3)CO2)ccc1O[C@H]1C[C@@H](N2CCCCC2)C1
II = c1cc(-c2nc(CN3CCCCC3)co2)ccc1OCCCN1CCCCC1
III = CC1(C)COC(c2ccc(O[C@H]3C[C@H](N4CCCCC4)C3)cc2)=N1
IV = CC1(C)COC(c2ccc(OCCCN3CCCCC3)cc2)=N1
INPUT: Hey, quick one: sort these by EC50, largest value first please. State the ranking by listing the labels in the requested order.
OUTPUT: I, IV, II, III

###

# Study target: Histamine H3 receptor (Homo sapiens, UniProt Q9Y5N1)
# Sequence (Q9Y5N1 whole entry): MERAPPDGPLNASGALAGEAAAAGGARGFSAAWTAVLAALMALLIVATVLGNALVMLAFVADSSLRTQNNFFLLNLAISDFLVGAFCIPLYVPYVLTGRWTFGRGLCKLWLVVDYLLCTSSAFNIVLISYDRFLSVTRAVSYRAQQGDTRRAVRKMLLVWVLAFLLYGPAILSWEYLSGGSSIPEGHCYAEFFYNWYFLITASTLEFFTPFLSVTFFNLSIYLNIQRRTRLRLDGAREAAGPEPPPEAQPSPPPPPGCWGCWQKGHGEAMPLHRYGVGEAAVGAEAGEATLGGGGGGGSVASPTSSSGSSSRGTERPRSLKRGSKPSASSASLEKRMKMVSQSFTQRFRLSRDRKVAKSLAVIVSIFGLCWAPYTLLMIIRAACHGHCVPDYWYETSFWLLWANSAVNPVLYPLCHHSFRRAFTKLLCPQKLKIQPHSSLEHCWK
# Run description: Displacement of [3H]-Nalpha-methylhistamine from human histamine H3 receptor expressed in CHO cells by liquid scintillation counting
# Assay type: cell-based
Recorded metric: Ki (nM)

>  <Chemical structure>
CC1(C)COC(c2ccc(O[C@H]3C[C@H](N4CCCCC4)C3)cc2)=N1

>  <Units of measure>
nM

>  <Ki>
7.94

$$$$
>  <Chemical structure>
c1cc(-c2nc(CN3CCCCC3)co2)ccc1O[C@H]1C[C@H](N2CCCCC2)C1

>  <Units of measure>
nM

>  <Ki>
1.26

$$$$

I = c1cc(C2=NC3(CCCCC3)CO2)ccc1OCCCN1CCCCC1
II = c1cc(-c2nc(CN3CCCCC3)co2)ccc1OCCCN1CCCCC1
INPUT: I'd appreciate it if you could identify which of I and II has the greater Ki. Respond with the label that goes with your answer.
OUTPUT: I
